# System: Erythrocyte
# method notes: Hemolytic activity against mouse RBC measured after 1 hrs
# Type: toxicity, cell-based
Square brackets hold non-standard residues; d marks the D form. Peptide text beside a SMILES is read from it. ξ: configuration not given here. Ile(3ξ) = CCC(C)[C@H](N)C(=O)O
readout label: MHC10 (µM)
Provide the reading as a plain figure in µM.

# count of solved cases: 2
>  <compound>
CCC(C)[C@H](NC(=O)[C@@H]1CCCN1C(=O)[C@H](CC(C)C)NC(=O)[C@@H](N)Cc1ccccc1)C(=O)N[C@H](C(=O)N[C@@H](CCCCN)C(=O)N[C@@H](CCCCN)C(=O)N[C@@H](CC(C)C)C(=O)N[C@@H](CC(C)C)C(=O)N[C@@H](CCCCN)C(=O)N[C@@H](CCC(=O)O)C(=O)N[C@@H](CC(C)C)C(=O)N[C@@H](CC(C)C)C(N)=O)C(C)C (stereo partly specified) (H-FLP[Ile(3ξ)]VKKLLKELL-NH2)

>  <subject of test>
Erythrocyte

>  <unit symbol>
µM

>  <MHC10>
53.73

$$$$
>  <compound>
CC[C@H](C)[C@H](NC(=O)[C@H](CCC(=O)O)NC(=O)[C@H](CC(C)C)NC(=O)[C@@H](N)Cc1ccccc1)C(=O)N[C@H](C(=O)N[C@@H](C)C(=O)N[C@@H](CCCCN)C(=O)N[C@@H](CC(C)C)C(=O)N[C@@H](CC(C)C)C(=O)N[C@@H](CO)C(=O)NCC(=O)N[C@@H](CC(C)C)C(=O)N[C@@H](CC(C)C)C(N)=O)C(C)C (H-FLEIVAKLLSGLL-NH2)

>  <subject of test>
Erythrocyte

>  <unit symbol>
µM

>  <MHC10>
16.06

$$$$

Ask: Quick one: MHC10 for CCC(C)[C@H](NC(=O)[C@@H]1CCCN1C(=O)[C@H](CC(C)C)NC(=O)[C@@H](N)Cc1ccccc1)C(=O)N[C@H](C(=O)N[C@@H](CCCCN)C(=O)N[C@@H](CCCCN)C(=O)N[C@@H](CC(C)C)C(=O)N[C@@H](CC(C)C)C(=O)N[C@@H](CCC(=O)O)C(=O)N[C@@H](CCCCN)C(=O)N[C@@H](CC(C)C)C(=O)N[C@@H](CC(C)C)C(N)=O)C(C)C (stereo partly specified) (H-FLP[Ile(3ξ)]VKKLLEKLL-NH2) ?
Result: 42.55

Ask: Could you share which MHC10 value was measured for CC[C@H](C)[C@H](NC(=O)[C@@H]1CCCN1C(=O)[C@H](CC(C)C)NC(=O)[C@@H](N)Cc1ccccc1)C(=O)N[C@H](C(=O)N[C@@H](C)C(=O)N[C@@H](CCCCN)C(=O)N[C@@H](CC(C)C)C(=O)N[C@@H](CC(C)C)C(=O)N[C@@H](CCCCN)C(=O)NCC(=O)N[C@@H](CC(C)C)C(=O)N[C@@H](CC(C)C)C(N)=O)C(C)C (H-FLPIVAKLLKGLL-NH2) ?
Result: 27.66

Ask: Please look up its MHC10: CC[C@H](C)[C@H](NC(=O)[C@@H]1CCCN1C(=O)[C@H](CC(C)C)NC(=O)[C@@H](N)Cc1ccccc1)C(=O)N[C@H](C(=O)N[C@@H](C)C(=O)N[C@@H](CCCCN)C(=O)N[C@@H](CC(C)C)C(=O)N[C@@H](CC(C)C)C(=O)N[C@@H](CCC(=O)O)C(=O)NCC(=O)N[C@@H](CC(C)C)C(=O)N[C@@H](CC(C)C)C(N)=O)C(C)C (H-FLPIVAKLLEGLL-NH2)
Result: 69.93
